# systemTested: T1, active BoNT/G holotoxin (Clostridium botulinum, UniProt Q60393 2-1297)
# T1 sequence: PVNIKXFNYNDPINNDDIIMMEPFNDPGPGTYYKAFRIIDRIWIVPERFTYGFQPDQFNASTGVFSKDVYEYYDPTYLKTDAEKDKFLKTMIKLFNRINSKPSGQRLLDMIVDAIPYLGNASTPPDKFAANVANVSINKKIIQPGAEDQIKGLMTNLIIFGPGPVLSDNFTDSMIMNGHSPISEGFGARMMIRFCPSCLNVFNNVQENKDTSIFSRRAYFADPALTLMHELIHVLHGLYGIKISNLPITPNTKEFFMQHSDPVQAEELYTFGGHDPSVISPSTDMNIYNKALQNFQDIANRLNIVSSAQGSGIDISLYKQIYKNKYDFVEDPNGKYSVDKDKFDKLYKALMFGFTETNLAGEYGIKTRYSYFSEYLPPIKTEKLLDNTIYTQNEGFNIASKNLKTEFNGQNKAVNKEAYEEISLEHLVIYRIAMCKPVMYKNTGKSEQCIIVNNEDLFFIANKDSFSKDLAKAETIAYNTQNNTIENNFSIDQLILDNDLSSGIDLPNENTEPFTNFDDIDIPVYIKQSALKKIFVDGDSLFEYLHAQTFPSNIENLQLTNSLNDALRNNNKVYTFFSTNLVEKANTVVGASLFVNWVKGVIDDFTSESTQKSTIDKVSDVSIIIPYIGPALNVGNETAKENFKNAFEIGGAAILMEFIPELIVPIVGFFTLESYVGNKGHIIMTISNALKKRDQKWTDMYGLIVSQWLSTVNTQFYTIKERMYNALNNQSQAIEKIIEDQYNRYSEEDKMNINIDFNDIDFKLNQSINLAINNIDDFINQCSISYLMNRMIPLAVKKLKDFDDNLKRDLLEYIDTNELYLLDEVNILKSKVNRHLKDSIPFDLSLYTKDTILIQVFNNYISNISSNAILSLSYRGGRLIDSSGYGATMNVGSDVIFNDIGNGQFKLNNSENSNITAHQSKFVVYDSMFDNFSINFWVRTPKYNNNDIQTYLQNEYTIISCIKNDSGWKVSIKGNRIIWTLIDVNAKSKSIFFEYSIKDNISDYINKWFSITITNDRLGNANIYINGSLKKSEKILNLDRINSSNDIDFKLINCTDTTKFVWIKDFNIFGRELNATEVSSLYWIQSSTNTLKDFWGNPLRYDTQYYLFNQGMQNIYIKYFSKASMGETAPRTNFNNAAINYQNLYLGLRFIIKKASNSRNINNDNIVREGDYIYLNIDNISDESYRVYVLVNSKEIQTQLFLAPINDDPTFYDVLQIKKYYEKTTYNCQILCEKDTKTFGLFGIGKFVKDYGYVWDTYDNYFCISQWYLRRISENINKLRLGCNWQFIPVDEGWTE
# assayProtocol: KinExA, IgG
readoutKind: Kd
Reply with a number, then the unit it belongs to.

{"columns": ["binder", "Kd"],
 "data": [
  ["Hu6G11.1 IgG (antibody, V domains shown) VH: QVQLVQSGAEVAKPGASVKMSCKASGYTFTSYWMHWVRQAPGQGLEWIGYINPSTGYTEYNQKFKDRATLTADKSKSTAYMELSSLRSEDTAVYYCARGYFSFAYWGQGTLVTVSS VL: DIVMTQSPSSLSASVRDRVTITCQASHDIKNFLNWFQQKPGKAPKLLVYDASYLQVGVPSRFSASGYGTEFTLTISSLQPEDFATYYCQQANSFPRTFGQGTKVEIKR", "0.101 nM"],
  ["Hu6G7.1 IgG (antibody, V domains shown) VH: QVQLVQSGAEVKKPGASVKVSCKASDYSFTDYNIYWVRQTPGQGLEWIGYIDPYNGGTSYNQKFKGRATLTVDKSISTAYMELSRLRSDDTAVYYCALYGYDPDYIDYWGQGTTLTVSS VL: DIVLTQSPASMAVSPGQRVTITCSASSSVSYLHWFQQKPGQSPKLWIYSTSNLASGVPARFSGSGSGTDYTLTINPMEAEDTATYYCQQRSSYPYTFGQGTKLEIKR", "1.19 nM"]
]}

# input for lookup
// Kd lookup, binder = 6G10 IgG (antibody, V domains shown) VH: EVQLQQSGPELVKPGASVKISCKASGYSFTGYFMHWVKQSHVKSLEWIGRINPYNGDIIYNQNFKDKASLTVDKSSSTAYMELHSLTSEDSAVYYCASLFGLYYFDYWGQGTTLTVSS VL: EIVLTQSPAIMSASPGEKVTMTCSASSSVSYMHWYQQKSGTSPKRWIYDTSKLASGVPARFSGSGSGTSYSLTISSMEAEDAATYYCQQWSSNPLTFGAGTKLELKR , result: 0.33 nM

# credit: patent US20260116958A1
